Tested on: SK-MEL-28
Assay: NCI tumour cell line growth inhibition, 48 h
Activity calls are given as the source filed them. Rule as the data show it: active = GI50 up to about 1.1 µM and inactive = higher.
Possible outcomes: 1 for active, -1 for inactive

compound | classification
CCOC(=O)c1cc(=O)n(C)c(=O)n1C | -1
CN(C)/C=C/c1c2c(nc3ccccc13)C(=O)c1cccnc1C2=O | 1
COc1ccc(Nc2nc3c(N)cc(C(F)(F)F)cc3nc2-c2ccccc2)cc1OC | -1
O=[N+]([O-])c1ccc(Cc2nc3cc4ccccc4cc3[nH]2)cc1C(F)(F)F | -1
CCN(CC)C(=O)CCn1cc(F)c(=O)[nH]c1=O | -1
CCCCN(CCCC)c1c([N+](=O)[O-])c(=O)nc2ccccn12 | -1
NNC(=S)N/N=C/C(=C/Nc1ccccc1)[N+](=O)[O-] | -1
CC(=O)c1cccc(NC2C(N)C(NC(=O)N(C)C)(C(C)O)C(C)(O)C2(O)COC(=O)c2c(C)cccc2O)c1 (stereo not given) | 1
C/C(=N\N)C(CN(C)C)C(c1ccccc1)c1c(O)c2ccccc2oc1=O (stereo not given) | -1
CC1(c2cccc3c2C2(O)C=CC4(CCC32)OCCO4)OCCO1 (stereo not given) | -1
